Each entry below carries its recorded photoluminescence quantum yield.
# METHOD_SUMMARY: photoluminescence quantum yield (fraction); solvent given as SMILES
# COND: in OCC(O)CO
Keep the answer to the number alone.

Look over these answered cases.
C[n+]1ccc(/C=C/c2ccc(N(c3ccccc3)c3ccc(/C=C/c4cc[n+](C)cc4)cc3)cc2)cc1: 0.11
CN(C)c1ccc(/C=C/C=C/c2nc3ccccc3s2)cc1: 0.039
CCCn1c2cccc3oc4cccc5c4[c+](c32)c2c1cccc2n5CCC: 0.39

Prompt line: Hello, please tell me recorded photoluminescence quantum yield for this one: "CCN1C(=CC=Cc2n(CC)c3cc(Cl)c(Cl)cc3[n+]2CC)N(CC)c2cc(Cl)c(Cl)cc21"
Response line: 0.36

Prompt line: Note photoluminescence quantum yield for the molecule shown: "CCN(CC)c1ccc2cc(/C=C/c3cccc[n+]3CCCS(=O)(=O)[O-])c(=O)oc2c1"
Response line: 0.19

Prompt line: Please look at this molecule and report its photoluminescence quantum yield: "c1csc(-c2cnc(-c3cccs3)c3nonc23)c1"
Response line: 0.03

Prompt line: Answer with reported photoluminescence quantum yield of "O=C1NC(=O)/C(=C\c2ccccc2O)S1"
Response line: 0.632
